For each record, write down the corresponding Total Cell Count.
# System: U2OS
# ASSAY_TEXT: Multiplex assay against U2OS
# Format: toxicity, cell-based
# ASSAY_CONTEXT: human, 24 h, 10 µM, compound concentration 10 uM, replicate 1
One number for each entry.

Worked set:
COMPOUND: O=C(Cc1ccc(-c2ccc(OCCN3CCOCC3)cc2)cn1)NCc1ccccc1 [TIRBANIBULIN]
Total Cell Count: 160
--
COMPOUND: CN(C)C(=O)C(CCN1CCC(O)(c2ccc(Cl)cc2)CC1)(c1ccccc1)c1ccccc1.Cl [LOPERAMIDE HYDROCHLORIDE]
Total Cell Count: 146

I need Total Cell Count for every entry listed below, if you could help.
1. O=C1N/C(=N/c2ccccc2F)S/C1=C\c1ccc(C(=O)O)cc1
2. CCCS(=O)(=O)Nc1ccc(F)c(C(=O)c2c[nH]c3ncc(Cl)cc23)c1F [PLX-4720]

1: 234; 2: 152

---

# Test system: HEK-293T
# ASSAY_TEXT: Multiplex assay against HEK293T
# Format: toxicity, cell-based
# ASSAY_CONTEXT: human, 24 h, 1 µM, compound concentration 1 uM, replicate 1
PROPERTY_MEASURED: Population Mitotic Cells (%)
Give bare numbers, in %.

Worked set:
MOLECULE: CCn1cc(-c2ccnc3[nH]c(-c4cccc(CN(C)C)c4)cc23)c(-c2ccc(NC(=O)N(C)C)cc2)n1
Population Mitotic Cells (%): 84

MOLECULE: COc1cc(N2CCN(C)CC2)ccc1Nc1ncc2c(n1)N(C)c1ccccc1C(=O)N2C
Population Mitotic Cells (%): 61

MOLECULE: CN(C)C(=O)C(CCN1CCC(O)(c2ccc(Cl)cc2)CC1)(c1ccccc1)c1ccccc1.Cl [LOPERAMIDE HYDROCHLORIDE]
Population Mitotic Cells (%): 26

Let us move to another entry and its Population Mitotic Cells (%).
Sample COc1cc2ncnc(Nc3ccc(F)c(Cl)c3)c2cc1NC(=O)/C=C/CN1CCCCC1 [DACOMITINIB ANHYDROUS] — what was its Population Mitotic Cells (%)?
60

---

# Test system: Fibroblast
# ASSAY_TEXT: Multiplex assay against human fibroblast
# Type: toxicity, cell-based
# ASSAY_CONTEXT: 24 h, 1 µM, compound concentration 1 uM, replicate 1
For each record, write down the corresponding Population Normal (%).

Worked set:
MOLECULAR_STRING: CCCn1c(=O)c2[nH]c(-c3cnn(Cc4cccc(C(F)(F)F)c4)c3)nc2n(CC)c1=O
TARGET: Fibroblast
RESULT: 79%
//
MOLECULAR_STRING: S=C(NCCCc1c[nH]cn1)NCCCN(Cc1ccc(Cl)c(Cl)c1)c1ccc(Br)cn1
TARGET: Fibroblast
RESULT: 82%
//
MOLECULAR_STRING: Cl.O=C(c1ccc(Nc2nccc(-c3cc4ccccc4s3)n2)cc1)N1CCC(N2CCCC2)CC1
TARGET: Fibroblast
RESULT: 76%
//
MOLECULAR_STRING: O=C(Nc1ccc(-c2ccnc(Nc3ccc(N4CCOCC4)cc3)n2)cc1)[C@@H]1CCCN1
TARGET: Fibroblast
RESULT: 91%
//
MOLECULAR_STRING: COc1ccc(S(=O)(=O)N(CCO)c2ccccc2CN(C)C/C=C/c2ccc(Cl)cc2)cc1.O=P(O)(O)O
TARGET: Fibroblast
RESULT: 76%

I need Population Normal (%) for every entry listed below, if you could help.
1. C=CCn1c(=O)c2cnc(Nc3ccc(N4CCN(C)CC4)cc3)nc2n1-c1cccc(C(C)(C)O)n1
2. CCn1c(=O)c(-c2ccc(-c3cncs3)cc2Cl)cc2cnc(Nc3ccc(N4CCN(C)CC4)cc3)nc21

1. 81%
2. 83%

Can you look up Population Normal (%) on Fibroblast for CCN1CCN(c2ccc(Nc3cc(N(C)C(=O)Nc4c(Cl)c(OC)cc(OC)c4Cl)ncn3)cc2)CC1 ?
63%

---

# System: Fibroblast
# ASSAY_TEXT: Multiplex assay against human fibroblast
# Assay type: toxicity, cell-based
# ASSAY_CONTEXT: 12 h, 1 µM, compound concentration 1 uM, replicate 1
PROPERTY_MEASURED: Total Cell Count
Give bare numbers.

COMPOUND: O=C(Nc1ccc(Cl)cc1)Nc1cccc(-c2cccc(N3CCCC3)n2)c1
Total Cell Count: 110
//
COMPOUND: CNc1cc(Oc2cc(C(=O)Nc3cc(N4CCN(C)CC4)cc(C(F)(F)F)c3)ccc2C)ncn1
Total Cell Count: 147
//
COMPOUND: Cn1nc(C(F)(F)F)cc1-c1cnc(N2CCc3cc(S(=O)(=O)Nc4c(F)cc(Cl)cc4F)cc(N4CCCC4=O)c32)nc1
Total Cell Count: 241
//
COMPOUND: COc1cccc2cc(-c3nc([C@H]4CC[C@H](C(=O)O)CC4)n4ncnc(N)c34)[nH]c12
Total Cell Count: 382
//
COMPOUND: S=C(NCCCc1c[nH]cn1)NCCCN(Cc1ccc(Cl)c(Cl)c1)c1ccc(Br)cn1
Total Cell Count: 140

I need Total Cell Count for every entry listed below, if you could help.
1. COc1ccc(-c2ccc3c(N4CCOCC4)nc(N4C[C@@H](C)O[C@@H](C)C4)nc3n2)cc1CO
2. Cc1ccc2nc(NCCN)c3ncc(C)n3c2c1.O=C(O)C(F)(F)F.O=C(O)C(F)(F)F
3. CCOC(=O)c1c(C)[nH]c2ccc3c(c12)CN1CCc2cc(OC)ccc2C1O3 (stereo unspecified)

1. 281
2. 243
3. 150

I need Total Cell Count for every entry listed below, if you could help.
1. Cl.Oc1ccc2c3c1O[C@H]1c4[nH]c5c(c4C[C@@]4(O)[C@@H](C2)N(CC2CC2)CC[C@]314)C[C@@]1(O)[C@H]2Cc3ccc(O)c4c3[C@@]1(CCN2CC1CC1)[C@H]5O4
2. CNC(=O)c1ccc(Nc2nc(OC3CCCC3)c3c(-c4ccc5nc(C)oc5c4)c[nH]c3n2)c(OC)c1
3. COc1cc2ncnc(Nc3ccc(F)c(Cl)c3)c2cc1NC(=O)/C=C/CN1CCCCC1 [DACOMITINIB ANHYDROUS]
4. CCOc1cc2ncc(C#N)c(Nc3ccc(OCc4ccccn4)c(Cl)c3)c2cc1NC(=O)/C=C/CN(C)C

1: 103; 2: 237; 3: 248; 4: 134

---

# Test system: Fibroblast
# ASSAY_TEXT: Incucyte cell viability with human fibroblast; also: filed as whole numbers so only -1 and 0 and 1 occur
# Assay type: toxicity, cell-based
# ASSAY_CONTEXT: 18 h, 10 µM, compound concentration 10 uM, replicate number 1, timepoint 18 hours
PROPERTY_MEASURED: Growth Rate
One number for each entry.

Worked set:
COMPOUND: CCCS(=O)(=O)Nc1ccc(F)c(C(=O)c2c[nH]c3ncc(Cl)cc23)c1F
QUANTITATIVE_READOUT: 0
//
COMPOUND: CN1CCN(C(=O)C(C)(C)c2ccc(C(=O)Nc3cn4cc(-c5ccncc5)ccc4n3)cc2)CC1
QUANTITATIVE_READOUT: 1
//
COMPOUND: O=C1NCN(c2ccccc2)C12CCN(CC1COc3ccccc3O1)CC2 (stereo not drawn)
QUANTITATIVE_READOUT: 0
//
COMPOUND: Cl.O=C(O)Cc1cccc(OCCCN(Cc2cccc(C(F)(F)F)c2Cl)CC(c2ccccc2)c2ccccc2)c1
QUANTITATIVE_READOUT: 1
//
COMPOUND: CC(C)C[C@H](CO)Nc1nc(S[C@@H](C)c2ccccc2)nc2nc(N)sc12
QUANTITATIVE_READOUT: 0
//
COMPOUND: CCn1cc(-c2ccnc3[nH]c(-c4cccc(CN(C)C)c4)cc23)c(-c2ccc(NC(=O)N(C)C)cc2)n1
QUANTITATIVE_READOUT: 0
//
COMPOUND: c1ccc(Nc2nc3c(s2)CCCc2[nH]ncc2-3)nc1
QUANTITATIVE_READOUT: 1

Let us move to another entry and its Growth Rate.
Can you look up Growth Rate on Fibroblast for Cc1c(C(=O)O)cc(-c2ccc(C3CCNCC3)cc2)c2ccc(-c3ccc(C(F)(F)F)cc3)cc12.Cl ?
0

---

# Tested on: Fibroblast
# ASSAY_TEXT: Multiplex assay against human fibroblast
# Format: toxicity, cell-based
# ASSAY_CONTEXT: 48 h, 1 µM, compound concentration 1 uM, replicate 1
# note: exactly 40% is not below, so it is F; use T for Population Fragmented Nuclei (%) strictly under it

Field: example entries. Status: answers known.
COMPOUND: CN(C)C(=O)C(CCN1CCC(O)(c2ccc(Cl)cc2)CC1)(c1ccccc1)c1ccccc1.Cl [LOPERAMIDE HYDROCHLORIDE]
LABEL_VALUE: T

COMPOUND: CCCS(=O)(=O)c1nc(NC2CC2)cc(-c2ccc3c(ccn3C3CC(C)(C)NC(C)(C)C3)c2)n1
LABEL_VALUE: T

COMPOUND: O=C1NC(=O)C(c2cnc3ccccn23)=C1c1cn2c3c(cc(F)cc13)CN(C(=O)N1CCCCC1)CC2 [LY-2090314]
LABEL_VALUE: T

COMPOUND: O=C(Nc1ccc(-c2ccnc(Nc3ccc(N4CCOCC4)cc3)n2)cc1)[C@@H]1CCCN1
LABEL_VALUE: T

COMPOUND: Cc1ccc(C(=O)Nc2cccc(C(F)(F)F)c2)cc1Nc1nc(-c2cccnc2)nc2c1cnn2C
LABEL_VALUE: F

Does CCCn1c(=O)c2[nH]c(-c3cnn(Cc4cccc(C(F)(F)F)c4)c3)nc2n(CC)c1=O [GS 6201] have Population Fragmented Nuclei (%) strictly under 40%?
T

Does Cc1cc(C)c(S(=O)(=O)N(Cc2ccc(-c3cccc(S(C)(=O)=O)c3)cc2)Cc2ccc(C(F)(F)F)o2)c(C)c1 have Population Fragmented Nuclei (%) strictly under 40%?
T

Does Cl.Oc1ccc2c3c1O[C@H]1c4[nH]c5c(c4C[C@@]4(O)[C@@H](C2)N(CC2CC2)CC[C@]314)C[C@@]1(O)[C@H]2Cc3ccc(O)c4c3[C@@]1(CCN2CC1CC1)[C@H]5O4 have Population Fragmented Nuclei (%) strictly under 40%?
T

Does Cl.O=c1c2cccn2c2ccccc2n1CCCN1CCC(c2ccc(Cl)cc2)CC1 have Population Fragmented Nuclei (%) strictly under 40%?
F

Does CCOC(=O)c1c(C)[nH]c2ccc3c(c12)CN1CCc2cc(OC)ccc2C1O3 (stereo unspecified) have Population Fragmented Nuclei (%) strictly under 40%?
T
